Let's look at some molecules and their measured TGI.
# System: TK-10 renal
# measurement_notes: NCI tumour cell line growth inhibition, 48 h

Consider the molecule shown here: [Au+].c1c[n-]cn1.c1ccc([PH+](c2ccccc2)c2ccccc2)cc1 What is its recorded TGI?
6.46 µM

###

# System: U251 CNS
Respond only with the outcome that fits, drawn from true (1) (active), false (0) (inactive)

[
  {
    "molecule": "Cc1nc2cc(Nc3nc(Nc4ccc(F)cc4)nc(N4CCCC4)n3)ccc2n1Cc1ccccc1",
    "group": "false (0)"
  },
  {
    "molecule": "Cc1ccnc(NC(c2ccccc2)c2ccc3cccnc3c2O)c1 (configuration not stated)",
    "group": "false (0)"
  },
  {
    "molecule": "COc1cc(OC)c(/C=C/C(=O)c2c(O)cc(OC)c(C3CCN(C)CC3)c2OC)c(OC)c1",
    "group": "false (0)"
  }
]

Consider the record given below.
What classification did Clc1ccc(Nc2ncnc3c2sc2ncccc23)c(Cl)c1 end up with in this test?
true (1)

###

Catalogue of compounds with associated TGI
# Test system: HL-60(TB) leukemia
# measurement_notes: NCI tumour cell line growth inhibition, 48 h

[
  {
    "compound": "CC(=O)Nc1ccc(C(=O)n2[nH]c(C)c(/C=C3\\C(=O)C=Cc4ccccc43)c2=O)cc1",
    "study_target": "HL-60(TB) leukemia",
    "TGI": "> 100 µM"
  }
]

Reported TGI for COc1ccc(Oc2nc3c(N)cc(C(F)(F)F)cc3nc2-c2ccccc2)cc1 : what is it?
> 100 µM

Ok, now Cc1cc2c(C)nn(Cc3ccccc3Cl)c2c(C#N)c1C
> 100 µM

Quick one: COc1cc(/C=C/C2=NN(c3cccc(S(=O)(=O)O)c3)C3(C2)SCC(=O)N3c2nc3ccccc3s2)cc(OC)c1OC (centres undefined)
> 100 µM

What do we get for COc1cc(C2c3cc4c(cc3OC(NNc3ccccc3)C2C)OCO4)cc(OC)c1O (centres undefined) ?
5.18 µM

Try this compound too: O=c1[nH]c(-c2ccc(Cl)cc2)cc2ccsc12
> 100 µM

Next record, please: N/C(=N\C(N)=N\c1nc2ccccc2s1)c1ccnc(Br)c1
> 100 µM

Here is the next compound: COC1/C=C/OC2(C)Oc3c(C)c(O)c4c(O)c(c(C=NOC(c5ccccc5)c5ccccc5)c(O)c4c3C2=O)NC(=O)/C(C)=C/C=C/C(C)C(O)C(C)C(O)C(C)C(OC(C)=O)C1C (centres undefined)
3.83 µM

Same thing, different compound: COc1ccc2c(c1)C(=O)c1c-2c(OCCN2CCCCC2)nc2ccc(OC)cc12
6.64 µM

###

# System: NCI/ADR-RES ovarian
# measurement_notes: NCI tumour cell line growth inhibition, 48 h; in the data active means GI50 below about 0.43 µM; inactive means the rest
Choose the fitting class; nothing outside Y (active), N (inactive) is accepted.

Please review the entries below; each comes with its answer.
[
  {
    "molecule": "Cn1cc(-c2ccc3nnc(C(F)(F)c4ccc5ncccc5c4)n3n2)cn1",
    "group": "N"
  },
  {
    "molecule": "COc1cc(-c2ccc(=O)oc2C#Cc2ccccc2)cc(OC)c1OC",
    "group": "N"
  },
  {
    "molecule": "C=CCCCC(O)c1ccc(C(O)c2cnc3ccccc3c2)o1 (centres undefined)",
    "group": "N"
  }
]

Hey, what did the test say about COC1=CC(c2ccc[nH]2)=N/C1=C\c1[nH]c(C)c(C)c1CCC(=O)OCc1ccccc1 ?
Y

Try NCCCCCCCCCn1c2c(c3ccccc3c1=O)C(=O)c1ccccc1-2 next.
N

Moving on to CCOC(=O)Nc1cc(-c2ccc(C)c(NS(C)(=O)=O)c2)nn2c(C)nnc12
N

Let us now turn to O=C(c1ccccc1)c1c2n(c3c1cc(O)c1ccccc13)CCN2
N

Item: CNC(=O)c1cc(Oc2cccc3nc(NC(=O)Nc4ccc(F)cc4F)ccc23)ccn1
N

Please give the result for COc1ccc(Nc2ncccc2C(=O)NCc2cn(Cc3cccc(Oc4ccccc4)c3)nn2)c(OC)c1 too.
N
